System: iCell endothelial cells (human iPSC-derived ECs)
Assay text: Tube formation (tubulogenesis) assay in iCell endothelial cells, 18 h
Type: cell-based
Measurement parameters: Homo sapiens, Endothelial cell, iPSC-EC tube formation, 18 hr, 1.00 µM, 0.00 µM control = 100.00, read-out: endo.ttl.18hr
Structures can show the parent of a compound that is named as a salt.
Quantity name: activity at 1 µM (%)
Give the number; % is assumed, so skip it.

## Input # query: activity at 1 µM of entry O=S(=O)(O)Oc1cc(Cl)c(-c2cc(Cl)ccc2Cl)cc1Cl [4-yl PCB 52 sulfate]
## Output 119

## Input // query activity at 1 µM value for entry Oc1cc(Cl)c(-c2cc(Cl)ccc2Cl)cc1Cl
## Output 124

## Input Using the record for Oc1cc(Cl)cc(-c2cccc(Cl)c2)c1 , report its activity at 1 µM.
## Output 132

## Input Looking for the measured activity at 1 µM of Oc1ccccc1-c1ccc(Cl)cc1 , can you help?
## Output 98.8

## Input Report activity at 1 µM for O=S(=O)(O)Oc1cccc(-c2ccc(Cl)cc2)c1 [3'-yl PCB 3 sulfate] please.
## Output 98.9

## Input GET /values?readout=activity at 1 µM&item= O=S(=O)(O)Oc1cc(Cl)ccc1-c1ccccc1 [2-yl PCB 3 sulfate]
## Output 83.8

## Input May I ask what activity at 1 µM has been recorded for Oc1cccc(-c2ccc(Cl)cc2)c1 ?
## Output 69.4

###

Tested on: iPSC-CMs, iPSC-ECs and HUVECs phenotypes
Assay text: ToxPi 2.0 integration of POD values and physicochemical descriptors
Parameters: species or system human
Measurement parameters: ToxPi-scaled (0-1) score; iPSC cardiomyocytes, 90 min
Structures can show the parent of a compound that is named as a salt.
Simple rule here: cm.mii.90min less than 0.4 is criterion met, otherwise criterion not met.

## Input Lab note: confirm whether the reported cm.mii.90min for this compound is below 0.4, equality not counting. compound: Clc1ccc(-c2ccccc2)cc1 [PCB 3, 4-chlorobiphenyl]
## Output criterion not met

## Input Check if cm.mii.90min falls below 0.4 for Clc1cc(Cl)c(-c2cc(Cl)c(Cl)cc2Cl)cc1Cl [PCB 153, 2,2′,4,4′,5,5′-hexachlorobiphenyl] .
## Output criterion met

## Input # check: cm.mii.90min < 0.4 for O=S(=O)(O)Oc1cccc(-c2ccc(Cl)cc2)c1 [3'-PCB 3 sulfate]
## Output criterion met

## Input Given the entry Clc1ccc(Cl)c(-c2cc(Cl)ccc2Cl)c1 [PCB 52, 2,2′,5,5′-tetrachlorobiphenyl] , would its reported cm.mii.90min be below 0.4?
## Output criterion not met

## Input Is 0.4 strictly greater than the compound's reported cm.mii.90min? compound: O=S(=O)(O)Oc1cc(Cl)c(-c2cc(Cl)ccc2Cl)cc1Cl [4-PCB 52 sulfate]
## Output criterion met

## Input Please let me know if Clc1ccc(Cl)c(-c2c(Cl)ccc(Cl)c2Cl)c1Cl [(-)-PCB 136, 2,2′,3,3′,6,6′-hexachlorobiphenyl] shows cm.mii.90min below 0.4.
## Output criterion met

## Input Quick check: cm.mii.90min of COc1ccc(-c2ccc(Cl)cc2)cc1 [4'-OMe-PCB 3, 4′-methoxy-4-chlorobiphenyl] under 0.4?
## Output criterion met

## Input Is cm.mii.90min strictly under 0.4 for the entry O=C1C=CC(=O)C(c2ccc(Cl)cc2)=C1 [4-Cl-BQ, 2-(4-Chlorophenyl)benzo-2,5-quinone] ?
## Output criterion not met

## Input Hello, I'm reviewing records and need to know if cm.mii.90min of O=S(=O)(O)Oc1cc(-c2ccccc2)ccc1Cl [3-PCB 3 sulfate] is below 0.4. Could you check?
## Output criterion met

###

Test system: iCell endothelial cells (human iPSC-derived ECs)
Assay text: Tube formation (tubulogenesis) assay in iCell endothelial cells, 18 h
Type: cell-based
Measurement parameters: Homo sapiens, Endothelial cell, iPSC-EC tube formation, 18 hr, 0.01 µM, 0.00 µM control = 100.00, read-out: endo.tlps.18hr
Counter-ions that a name gives are not always drawn.
Would you mind telling me the reported activity at 0.01 µM of each entry?
The answer is to be given in %; state only the numeric part.

## Input Given the molecule O=S(=O)(O)Oc1cc(Cl)ccc1-c1ccccc1 [2-yl PCB 3 sulfate] , what is its reported activity at 0.01 µM?
## Output 97.8

## Input Entry under review: Clc1cccc(-c2cccc(Cl)c2)c1 . Reported activity at 0.01 µM?
## Output 118

## Input Using the record for Clc1ccc(Cl)c(-c2cc(Cl)ccc2Cl)c1 , report its activity at 0.01 µM.
## Output 89.1

## Input Bench note: what activity at 0.01 µM did Oc1ccc(-c2cccc(Cl)c2)cc1Cl show?
## Output 105

###

Tested on: iCell endothelial cells (human iPSC-derived ECs)
Assay text: High-content imaging cytotoxicity in iCell endothelial cells, 24 h
Assay type: cell-based
Measurement parameters: Homo sapiens, Endothelial cell, endothelial cells (endo), cyto, 24 hr, read-out: POD endo.cyto.24hr
Counter-ions that a name gives are not always drawn.
For each record, write down the corresponding minimal effective concentration.
Provide only the numeric value, understood in µM.

## Input # returns recorded minimal effective concentration (system: iCell endothelial cells (human iPSC-derived ECs)) for O=C1C=CC(=O)C(c2ccc(Cl)cc2)=C1 [4-Cl-BQ, 2-(4-Chlorophenyl)benzo-2,5-quinone]
## Output 3.82

## Input Which minimal effective concentration is reported with iCell endothelial cells (human iPSC-derived ECs) for this entry: Oc1ccc(-c2cccc(Cl)c2)cc1Cl [4-OH-PCB 11] ?
## Output 43.6

## Input Under iCell endothelial cells (human iPSC-derived ECs): minimal effective concentration value of Oc1cc(Cl)cc(-c2cccc(Cl)c2)c1 [5-OH-PCB 11] ?
## Output 42.3

## Input Request - read-out minimal effective concentration | tested on iCell endothelial cells (human iPSC-derived ECs) | molecule COc1ccc(-c2ccc(Cl)cc2)cc1 [4'-OMe-PCB 3, 4′-methoxy-4-chlorobiphenyl]
## Output 100

## Input Please state recorded minimal effective concentration (tested on iCell endothelial cells (human iPSC-derived ECs)) of Clc1ccc(Cl)c(-c2cc(Cl)ccc2Cl)c1 [PCB 52, 2,2′,5,5′-tetrachlorobiphenyl]
## Output 100

## Input # query: minimal effective concentration | item O=S(=O)(O)Oc1cccc(-c2ccc(Cl)cc2)c1 [3'-PCB 3 sulfate] | system: iCell endothelial cells (human iPSC-derived ECs)
## Output 100

## Input Lab note: need minimal effective concentration with iCell endothelial cells (human iPSC-derived ECs) for entry Clc1cc(Cl)c(-c2cc(Cl)c(Cl)cc2Cl)cc1Cl [PCB 153, 2,2′,4,4′,5,5′-hexachlorobiphenyl] , please look it up.
## Output 18.6

## Input For the record Clc1ccc(-c2cc(Cl)c(Cl)c(Cl)c2)cc1Cl [PCB 126, 3,3′,4,4′,5-pentachlorobiphenyl] , what value of minimal effective concentration is listed for iCell endothelial cells (human iPSC-derived ECs)?
## Output 0.33

## Input # value lookup — system iCell endothelial cells (human iPSC-derived ECs), readout minimal effective concentration, item Oc1ccc(O)c(-c2ccc(Cl)cc2)c1 [2',5'-diOH-PCB 3, 4-Chloro-2′,5′-dihydroxybiphenyl]
## Output 6.71

## Input # query: minimal effective concentration | item Clc1ccc(Cl)c(-c2c(Cl)ccc(Cl)c2Cl)c1 [PCB 95, 2,2′,3,5′,6-pentachlorobiphenyl] | system: iCell endothelial cells (human iPSC-derived ECs)
## Output 100

###

Tested on: HUVECs
Assay text: Tube formation (tubulogenesis) assay in HUVECs, 18 h
Format: cell-based, human
Measurement parameters: Homo sapiens, HUVEC, 18 h, HUVECs, 100.00 µM, 0.00 µM = 100.00, read-out: huvec.tlps.18hr
Structures can show the parent of a compound that is named as a salt.
For each record, write down the corresponding activity at 100 µM.
Dear colleague, please return just the value in %, with no unit written.

## Input Recorded activity at 100 µM of O=C1C=CC(=O)C(c2ccc(Cl)cc2)=C1 , please.
## Output 14.3

## Input Any idea what its activity at 100 µM is? The compound is O=S(=O)(O)Oc1ccc(-c2cccc(Cl)c2)cc1Cl [4-yl PCB 11 sulfate]
## Output 35.8

## Input Quick one: activity at 100 µM for O=S(=O)(O)Oc1cc(Cl)c(-c2cc(Cl)ccc2Cl)cc1Cl [4-yl PCB 52 sulfate] ?
## Output 26.3

## Input Bench note: what activity at 100 µM did O=S(=O)(O)Oc1cc(-c2ccccc2)ccc1Cl [3-yl PCB 3 sulfate] show?
## Output 58.1

###

Test system: iCell cardiomyocytes (human iPSC-derived cardiomyocytes)
Assay text: High-content imaging of cytotoxicity and mitochondrial integrity in iPSC-CMs
Assay type: cell-based
Measurement parameters: Homo sapiens, iPSC-CM, 1.5 h, iPSC-CM; read-out: cm.tc.90min POD
Where a name gives a salt, the structure may show the parent alone.
Quantity name: minimal effective concentration (µM)
Record the value in µM, omitting the unit from your answer.

## Input Consider the compound shown here: COc1ccc(-c2cccc(Cl)c2)cc1Cl What is its recorded minimal effective concentration?
## Output 28.6

## Input Give its minimal effective concentration value. Item: O=S(=O)(O)Oc1cc(Cl)ccc1-c1ccccc1 [2-yl PCB 3 sulfate]
## Output 100

## Input Would you kindly share the measured minimal effective concentration for Oc1ccc(O)c(-c2ccc(Cl)cc2)c1 ?
## Output 33.4

## Input For COc1ccc(-c2ccc(Cl)cc2)cc1 , what is its reported minimal effective concentration?
## Output 100

## Input Sample O=C1C=CC(=O)C(c2ccc(Cl)cc2)=C1 — what was its minimal effective concentration?
## Output 100
